test_target: ENaC (Epithelial Sodium Channel) (Mus musculus, UniProt Q61180+Q9WU38+Q9WU39)
Construct: Mouse kidney M-1 cells were cultivated in DMEM; endogenous in cells
Sequence (Q61180 1-699): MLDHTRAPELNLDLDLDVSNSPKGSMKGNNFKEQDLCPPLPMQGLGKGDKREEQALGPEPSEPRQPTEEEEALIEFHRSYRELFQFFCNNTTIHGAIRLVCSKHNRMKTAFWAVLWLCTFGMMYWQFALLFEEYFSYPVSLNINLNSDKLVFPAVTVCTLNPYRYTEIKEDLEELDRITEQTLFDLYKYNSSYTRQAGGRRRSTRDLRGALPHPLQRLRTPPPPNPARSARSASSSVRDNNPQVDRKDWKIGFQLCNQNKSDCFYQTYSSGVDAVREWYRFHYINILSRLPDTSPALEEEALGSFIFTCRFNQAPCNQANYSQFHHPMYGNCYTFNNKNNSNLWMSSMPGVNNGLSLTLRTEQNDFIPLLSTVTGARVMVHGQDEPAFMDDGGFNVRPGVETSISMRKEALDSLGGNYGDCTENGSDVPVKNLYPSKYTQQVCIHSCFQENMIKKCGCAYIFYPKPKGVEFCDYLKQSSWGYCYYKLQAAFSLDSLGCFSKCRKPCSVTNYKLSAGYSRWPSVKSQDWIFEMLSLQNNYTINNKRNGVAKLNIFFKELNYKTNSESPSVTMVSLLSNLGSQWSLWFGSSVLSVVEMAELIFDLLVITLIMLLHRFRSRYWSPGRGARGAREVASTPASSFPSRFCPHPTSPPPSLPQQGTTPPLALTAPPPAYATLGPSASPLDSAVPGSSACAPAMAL
Sequence (Q9WU38 1-638): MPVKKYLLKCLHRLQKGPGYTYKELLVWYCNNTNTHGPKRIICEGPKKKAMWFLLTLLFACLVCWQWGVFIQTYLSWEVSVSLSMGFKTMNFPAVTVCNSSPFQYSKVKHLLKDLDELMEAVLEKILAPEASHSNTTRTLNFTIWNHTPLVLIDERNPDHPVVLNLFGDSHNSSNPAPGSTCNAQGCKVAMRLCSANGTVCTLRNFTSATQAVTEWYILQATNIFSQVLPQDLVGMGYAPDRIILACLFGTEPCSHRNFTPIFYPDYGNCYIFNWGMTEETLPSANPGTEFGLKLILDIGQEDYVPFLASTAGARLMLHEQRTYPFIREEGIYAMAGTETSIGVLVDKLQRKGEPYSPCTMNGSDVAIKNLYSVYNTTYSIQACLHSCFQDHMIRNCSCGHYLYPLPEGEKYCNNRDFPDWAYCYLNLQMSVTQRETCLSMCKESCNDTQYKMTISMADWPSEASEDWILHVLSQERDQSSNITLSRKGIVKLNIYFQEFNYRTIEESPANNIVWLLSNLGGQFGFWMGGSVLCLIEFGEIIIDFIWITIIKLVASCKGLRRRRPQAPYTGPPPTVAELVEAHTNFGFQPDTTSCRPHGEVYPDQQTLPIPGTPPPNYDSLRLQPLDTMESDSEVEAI
Sequence (Q9WU39 1-655): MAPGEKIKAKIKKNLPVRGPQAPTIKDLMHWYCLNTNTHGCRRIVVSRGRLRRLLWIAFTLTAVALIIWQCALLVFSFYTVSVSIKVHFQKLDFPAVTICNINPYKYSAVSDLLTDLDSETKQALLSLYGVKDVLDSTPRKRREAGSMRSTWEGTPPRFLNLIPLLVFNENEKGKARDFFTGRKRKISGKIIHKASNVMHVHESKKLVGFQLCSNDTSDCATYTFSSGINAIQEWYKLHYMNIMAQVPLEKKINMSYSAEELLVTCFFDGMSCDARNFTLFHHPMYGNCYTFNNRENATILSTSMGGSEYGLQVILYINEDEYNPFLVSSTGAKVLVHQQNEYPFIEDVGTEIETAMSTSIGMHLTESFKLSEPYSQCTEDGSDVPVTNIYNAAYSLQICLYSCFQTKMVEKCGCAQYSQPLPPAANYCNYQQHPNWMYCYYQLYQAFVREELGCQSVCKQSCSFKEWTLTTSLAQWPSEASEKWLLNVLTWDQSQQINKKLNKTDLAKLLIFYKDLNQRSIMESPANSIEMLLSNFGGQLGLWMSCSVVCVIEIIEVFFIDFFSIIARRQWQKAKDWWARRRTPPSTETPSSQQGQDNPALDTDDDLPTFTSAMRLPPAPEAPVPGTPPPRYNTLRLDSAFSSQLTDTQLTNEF
assay_method_text: Ussing chamber: inhibition of amiloride sensitive short circuit current (I_sc) in M-1 cells
condition_details: mouse kidney M-1 cells
pIC50: −log10 of the molar value.
readout_name: pIC50

Solved cases (2 shown):
# compound, pIC50
data = [
    ("NC(=NC(=O)c1nc(Cl)c(N)nc1N)NC1CCN(Cc2ccc(-c3cn(CCOCCO)nn3)cc2)CC1 [Example 5.6]", 8.52),
    ("NC(=NC(=O)c1nc(Cl)c(N)nc1N)NC1CCN(Cc2ccc(C(=O)O)cc2Cl)CC1 [Example 8.11]", 7.30),
]

(A) NC(=NC(=O)c1nc(Cl)c(N)nc1N)NC1CCN(Cc2ccc(-c3cn(CCOCCOCCOCCOCCOCCO)nn3)cc2)CC1 [Example 3.27]
(B) COC(=O)C(c1ccccc1)N1CCC(NC(N)=NC(=O)c2nc(Cl)c(N)nc2N)CC1 (stereo not shown) [Example 1.37]
(C) NC(=NC(=O)c1nc(Cl)c(N)nc1N)NC1CCN(Cc2ccc(C(=O)OCCCCc3cn(CCOCCOCCOCCO)nn3)cc2)CC1 [Example 3.42]
(D) NC(=NC(=O)c1nc(Cl)c(N)nc1N)NC1CCN(Cc2ccc(C(=O)NCCS(=O)(=O)O)cc2)CC1 [Example 2.4]
(E) NC(=NC(=O)c1nc(Cl)c(N)nc1N)N[C@H]1CCCN(Cc2ccc(C(=O)O)cc2)C1 [Example 1.60]
Hey, can you sort those compounds up there by pIC50, smallest first? Respond with the label ranking, as requested.
E, D, B, C, A
(E: 6.78, D: 7.46, B: 7.77, C: 8.00, A: 9.00)
